Target: full-length beta-Catenin (Uniprot ID P35222) (Homo sapiens, UniProt P35222)
Construct: 10 nM full-length beta-Catenin (Uniprot ID P35222)
Sequence (P35222 1-781): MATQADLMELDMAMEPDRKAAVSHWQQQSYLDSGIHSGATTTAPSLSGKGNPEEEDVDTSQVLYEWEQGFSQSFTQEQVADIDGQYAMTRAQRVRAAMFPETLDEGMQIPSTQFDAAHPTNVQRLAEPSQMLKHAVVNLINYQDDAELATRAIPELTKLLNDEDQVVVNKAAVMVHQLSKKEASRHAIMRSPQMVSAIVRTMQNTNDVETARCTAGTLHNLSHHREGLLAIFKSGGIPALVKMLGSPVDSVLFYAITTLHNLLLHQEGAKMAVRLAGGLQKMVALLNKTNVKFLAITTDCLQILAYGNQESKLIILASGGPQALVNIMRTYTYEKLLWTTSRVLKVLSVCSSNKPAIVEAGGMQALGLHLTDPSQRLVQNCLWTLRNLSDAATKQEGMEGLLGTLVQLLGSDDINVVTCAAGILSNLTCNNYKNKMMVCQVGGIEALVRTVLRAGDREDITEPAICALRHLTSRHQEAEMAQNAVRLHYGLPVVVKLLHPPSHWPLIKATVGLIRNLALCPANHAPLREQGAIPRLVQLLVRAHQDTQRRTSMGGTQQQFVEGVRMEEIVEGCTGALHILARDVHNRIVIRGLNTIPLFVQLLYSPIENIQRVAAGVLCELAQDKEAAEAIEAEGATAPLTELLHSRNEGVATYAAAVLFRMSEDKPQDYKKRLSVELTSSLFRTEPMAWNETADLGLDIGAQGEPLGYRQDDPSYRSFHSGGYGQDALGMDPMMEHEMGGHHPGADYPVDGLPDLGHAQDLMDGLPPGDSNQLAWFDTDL
Assay: Fluorescence polarization IC50 (beta-catenin / 5FAM-TCF4 10-53 competition)
Format: binding
Settings: Table E2-1; read-out: beta-Catenin FP IC50
pIC50: −log10 of the molar value.

Compound	pIC50
CC(=O)N1CCC[C@]12CC=CCCCC1(CCCC=CCCCCCC[C@@](C)(C(=O)N[C@@H](Cc3ccc(O)cc3)C(=O)N[C@@H](Cc3csc4ccccc34)C(=O)N[C@@H](CCC(N)=O)C(N)=O)NC(=O)[C@H](C(C)C)NC(=O)[C@H](Cc3ccccc3)NC(=O)[C@H](C)NC(=O)[C@H](C)NC(=O)[C@H](CC(=O)O)NC(=O)[C@H](CC(=O)O)NC1=O)NC(=O)[C@H](C)NC(=O)[C@H](CC(=O)O)NC2=O (stereo partly drawn) [I-341]	5.70
CC(=O)N1CCC[C@]12CC=CCCCC1(CCCC=CCCCCCC[C@@](C)(C(=O)N[C@@H](Cc3ccccc3)C(=O)N[C@@H](Cc3csc4ccccc34)C(=O)N[C@@H](CCC(N)=O)C(N)=O)NC(=O)[C@H](C(C)C)NC(=O)[C@H](Cc3cccc(C(F)(F)F)c3)NC(=O)[C@H](C)NC(=O)[C@H](C)NC(=O)[C@H](CC(=O)O)NC(=O)[C@H](CC(=O)O)NC1=O)NC(=O)[C@H](C)NC(=O)[C@H](CC(=O)O)NC2=O (stereo partly drawn) [I-373]	6.02
CC(=O)N1CCC[C@]12CC=CCCCC1(CCCC=CCCCCCC[C@@](C)(C(=O)N[C@@H](Cc3ccccc3)C(=O)N[C@@H](Cc3c[nH]c4ccccc34)C(=O)N[C@@H](C)C(N)=O)NC(=O)[C@H](C)NC(=O)[C@H](Cc3ccccc3)NC(=O)[C@H](C)NC(=O)[C@H](C)NC(=O)[C@H](CC(=O)O)NC(=O)[C@H](CC(=O)O)NC1=O)NC(=O)[C@H](C)NC(=O)[C@H](CC(=O)O)NC2=O (stereo partly drawn) [I-286]	5.35

---

Quick reference: Solubility of the listed items.
experiment: Solubility in PBS; assay type: physicochemical; settings: Solubility (uM)
Measured Metric: Solubility (µM)

Compound	Meas Value
CCCNC(=O)C[C@@H]1NC(=O)C2(CCCC=CCCCCCC[C@@](C)(C(=O)N[C@@H](Cc3ccccc3)C(=O)N[C@@H](Cc3csc4ccccc34)C(=O)N[C@@H](CCC(N)=O)C(N)=O)NC(=O)[C@H](C(C)C)NC(=O)[C@H](Cc3ccccc3)NC(=O)[C@H](C)NC(=O)[C@H](C)NC(=O)[C@H](CC(=O)O)NC1=O)CCCC=CC[C@]1(CCCN1C(C)=O)C(=O)N[C@@H](CC(=O)O)C(=O)N[C@@H](C)C(=O)N2 (stereo partly drawn) [I-537]	11
CC(=O)N1CCC[C@]12CC=CCCCC1(CCCC=CCCCOC(=O)N3CC[C@@](C(=O)N[C@@H](Cc4ccccc4Cl)C(=O)N[C@@H](Cc4csc5ccccc45)C(=O)N[C@@H](CO)C(N)=O)(C3)NC(=O)[C@H](CO)NC(=O)[C@H](Cc3ccccc3)NC(=O)[C@H](C)NC(=O)[C@H](C)NC(=O)[C@H](CC(=O)O)NC(=O)[C@H](CC(=O)O)NC1=O)NC(=O)[C@H](CC1CCCCC1)NC(=O)[C@H](CC(=O)O)NC2=O (stereo partly drawn) [I-1050]	43
CC(=O)N1CCC[C@]12CC=CCCCC1(CCCC=CCCCOC(=O)N3CC[C@@](C(=O)N[C@@H](Cc4ccccc4Cl)C(=O)N[C@@H](Cc4csc5ccccc45)C(=O)N[C@@H](CCC(N)=O)C(N)=O)(C3)NC(=O)[C@H](CC(N)=O)NC(=O)[C@H](Cc3ccccc3)NC(=O)[C@H](CCCCN)NC(=O)[C@H](C)NC(=O)[C@H](CN(CC(=O)O)CC(F)(F)F)NC(=O)[C@H](CC(=O)O)NC1=O)NC(=O)[C@H](CC(C)(C)C)NC(=O)[C@H](CC(=O)O)NC2=O (stereo partly drawn) [I-1006]	30

---

target: beta-catenin/TCF4 engagement (Homo sapiens); construct: expressed in transfected cells; host or cells: HEK293; assay: Nano-BRET target engagement assay (B-cat-Halo & TCF4-Luc in HEK293 cells); type: cell-based; conditions: read-out: NanoBRET Abs IC50
pIC50: −log10 of the molar value.

Molecule	Operator	pIC50
CC(=O)N1CCC[C@]12CC=CCCCC1(CCCC=CCCCOC(=O)N3CC[C@@](C(=O)N[C@@H](Cc4ccsc4)C(=O)N[C@@H](Cc4csc5ccccc45)C(=O)N[C@@H](CCC(N)=O)C(N)=O)(C3)NC(=O)[C@H](CC(C)C)NC(=O)[C@H](Cc3ccccc3)NC(=O)[C@H](C)NC(=O)[C@H](C)NC(=O)[C@H](Cn3cc(CC(=O)O)nn3)NC(=O)[C@H](CC(=O)O)NC1=O)NC(=O)[C@H](CC(C)(C)C)NC(=O)[C@H](CC(=O)O)NC2=O (stereo partly drawn)	=	5.04
CC(=O)N1CCC[C@]12CC=CCCCC1(CCCC=CCCCOC(=O)N3CC[C@@](C(=O)N[C@@H](Cc4ccsc4)C(=O)N[C@@H](Cc4csc5ccccc45)C(=O)N[C@@H](CCC(N)=O)C(N)=O)(C3)NC(=O)[C@H](CC(N)=O)NC(=O)[C@H](Cc3cccc(C(=O)O)c3)NC(=O)[C@H](C)NC(=O)[C@H](C)NC(=O)[C@H](Cc3c[nH]cn3)NC(=O)[C@H](CC(=O)O)NC1=O)NC(=O)[C@H](CC(C)(C)C)NC(=O)[C@H](CC(=O)O)NC2=O (stereo partly drawn) [I-2118]	<	4.70
CC(=O)N1CCC[C@]12CC=CCCCC1(CCCC=CCCCOC(=O)N3CC[C@@](C(=O)N[C@@H](Cc4ccccc4)C(=O)N[C@@H](Cc4csc5ccccc45)C(=O)N[C@@H](Cc4c[nH]cn4)C(N)=O)(C3)NC(=O)[C@H](CC(N)=O)NC(=O)[C@H](Cc3ccccc3)NC(=O)[C@H](C)NC(=O)[C@H](C)NC(=O)[C@H](CC(=O)O)NC(=O)[C@H](CC(=O)O)NC1=O)NC(=O)[C@H](CC(C)(C)C)NC(=O)[C@H](CC(=O)O)NC2=O (stereo partly drawn)	=	4.70

---

Biological target: full-length beta-Catenin (Uniprot ID P35222) (Homo sapiens, UniProt P35222)
Construct: 10 nM full-length beta-Catenin (Uniprot ID P35222)
Sequence (P35222 1-781): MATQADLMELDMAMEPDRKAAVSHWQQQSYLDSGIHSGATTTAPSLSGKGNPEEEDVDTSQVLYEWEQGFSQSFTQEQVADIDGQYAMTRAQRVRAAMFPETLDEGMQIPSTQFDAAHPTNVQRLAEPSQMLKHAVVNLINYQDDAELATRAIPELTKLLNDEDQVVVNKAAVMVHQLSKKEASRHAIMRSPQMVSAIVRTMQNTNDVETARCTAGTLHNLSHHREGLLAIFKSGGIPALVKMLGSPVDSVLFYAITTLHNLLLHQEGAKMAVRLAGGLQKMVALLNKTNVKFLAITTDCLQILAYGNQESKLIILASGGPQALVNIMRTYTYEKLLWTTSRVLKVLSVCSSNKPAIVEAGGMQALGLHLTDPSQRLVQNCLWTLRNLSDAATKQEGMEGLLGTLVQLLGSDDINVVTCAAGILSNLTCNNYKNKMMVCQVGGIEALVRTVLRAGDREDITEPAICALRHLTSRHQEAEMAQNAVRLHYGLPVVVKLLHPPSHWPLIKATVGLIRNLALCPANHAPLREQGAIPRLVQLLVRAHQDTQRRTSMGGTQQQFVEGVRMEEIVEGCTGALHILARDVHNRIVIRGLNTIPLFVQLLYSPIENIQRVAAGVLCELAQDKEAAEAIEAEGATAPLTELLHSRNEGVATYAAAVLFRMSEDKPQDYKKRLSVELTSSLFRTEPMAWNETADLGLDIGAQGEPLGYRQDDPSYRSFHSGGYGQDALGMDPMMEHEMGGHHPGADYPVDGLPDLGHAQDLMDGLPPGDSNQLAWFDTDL
Experiment: Fluorescence polarization IC50 (beta-catenin / 5FAM-TCF4 10-53 competition)
Format: binding
Conditions: fluorescence polarization; read-out: beta-Catenin FP IC50

Compound	IC50 (nM)
CC(=O)N1CCC[C@]12CC=CCCCC1(CCCC=CCCCOC(=O)N3CC[C@@](C(=O)N[C@@H](Cc4ccsc4)C(=O)N[C@@H](Cc4csc5ccccc45)C(=O)N[C@@H](CCC(N)=O)C(N)=O)(C3)NC(=O)[C@H](Cc3cccc(C(F)(F)F)c3)NC(=O)[C@H](Cc3ccccc3)NC(=O)[C@H](C)NC(=O)[C@H](C)NC(=O)[C@H](CC(=O)O)NC(=O)[C@H](CC(=O)O)NC1=O)NC(=O)[C@H](CC(C)(C)C)NC(=O)[C@H](CC(=O)O)NC2=O (some centres unmarked) [I-1364]	9
CC(=O)N1CCC[C@]12CC=CCCCC1(CCCC=CCCCOC(=O)N3CC[C@@](C(=O)N[C@@H](Cc4ccccc4C(F)(F)F)C(=O)N[C@@H](Cc4cccc(Cl)c4)C(=O)N[C@@H](CO)C(N)=O)(C3)NC(=O)[C@H](CC(C)C)NC(=O)[C@H](Cc3ccccc3)NC(=O)[C@H](C)NC(=O)[C@H](C)NC(=O)[C@H](Cc3cccc(C(=O)O)c3)NC(=O)[C@H](CC(=O)O)NC1=O)NC(=O)[C@H](CC(C)(C)C)NC(=O)[C@H](CC(=O)O)NC2=O (some centres unmarked) [I-2226]	97
CC(=O)N1CCC[C@]12CC=CCCCC1(CCCC=CCCCOC(=O)N3CC[C@@](C(=O)N[C@@H](Cc4ccsc4)C(=O)N[C@@H](Cc4csc5ccccc45)C(=O)N[C@@H](CCC(N)=O)C(=O)N[C@@H](CCCCNC(=O)COCCOCCNC(=O)C45CC6(C)CC(C)(CC(C)(C6)C4)C5)C(N)=O)(C3)NC(=O)[C@H](CC(C)C)NC(=O)[C@H](Cc3ccccc3)NC(=O)[C@H](C)NC(=O)[C@H](C)NC(=O)[C@H](CC(=O)O)NC(=O)[C@H](CC(=O)O)NC1=O)NC(=O)[C@H](CC(C)(C)C)NC(=O)[C@H](CC(=O)O)NC2=O (some centres unmarked) [I-1480]	37
CC(=O)N1CCC[C@]12CC=CCCCC1(CCCC=CCOC(=O)N(C)CC[C@@](C)(C(=O)N[C@@H](Cc3ccsc3)C(=O)N[C@@H](Cc3csc4ccccc34)C(=O)N[C@@H](CCC(N)=O)C(N)=O)NC(=O)[C@H](CC(N)=O)NC(=O)[C@H](Cc3ccccc3)NC(=O)[C@H](C)NC(=O)[C@H](C)NC(=O)[C@H]([C@@H](C)O)NC(=O)[C@H](CC(N)=O)NC1=O)NC(=O)[C@H](CC(C)(C)C)NC(=O)[C@H](CC(=O)O)NC2=O (some centres unmarked) [I-2213]	5250
CC[C@H](C)[C@@H]1NC(=O)[C@H](CC(=O)O)NC(=O)[C@]2(CC=CCCCC3(CCCC=CCCCCCC[C@@](C)(C(=O)N[C@@H](Cc4ccccc4)C(=O)N[C@@H](Cc4csc5ccccc45)C(=O)N[C@@H](CCC(N)=O)C(N)=O)NC(=O)[C@H](CCC(N)=O)NC(=O)[C@H](Cc4ccccc4)NC(=O)[C@H](CO)NC(=O)[C@H](C)NC(=O)[C@H](CCC(=O)O)NC(=O)[C@H](CC(=O)O)NC3=O)NC1=O)CCCN2C(C)=O (some centres unmarked) [I-661]	45
